# credit: patent US20120015957A1

The following compounds are listed with their measured IC50 values.
test-system: NPY Y2 receptor (Homo sapiens)
Construct: endogenous in cells; host or cells: KAN-Ts cells (membrane preparation)
method-notes: Neuropeptide Y2 radioligand binding assay ([125I]PYY, KAN-Ts cell membranes)
reported-conditions: membranes of KAN-Ts cells endogenously expressing Y2 receptors; [125I]PYY 80 pM; 1 h at rt; read-out: IC50 (μM), NPY Y2 binding
Please give a number only; it is taken to be in µM.

Recorded results for 3 compounds are shown here.
compound: CCN(CC)C(=O)C(c1ccccc1)N1CCN(c2ccc(-c3nc(C)n(C)n3)cc2F)CC1 (stereo not shown)
unit-symbol: µM
measured-number: 1.1
//
compound: CCN(CC)C(=O)C(c1ccccc1)N1CCN(c2ccc(-c3nc(C)ns3)cc2F)CC1 (stereo not shown)
unit-symbol: µM
measured-number: 0.11
//
compound: CCN(CC)C(=O)C(c1ccccc1)N1CCN(c2ccc(-c3nc(C)no3)cc2F)CC1 (stereo not shown)
unit-symbol: µM
measured-number: 0.085

Req: Any idea what its IC50 is? The compound is CCN(CC)C(=O)C(c1ccccc1)N1CCN(c2ccc(-c3noc(C(C)(C)C)n3)cc2F)CC1 (stereo not shown)
Resp: 0.6

----------
The following molecules are listed with their measured IC50 values.
test-system: NPY Y2 receptor (Homo sapiens, UniProt P49146)
Construct: endogenous in cells; host or cells: KAN-Ts cells (membrane preparation)
method-notes: Neuropeptide Y2 radioligand binding assay ([125I]PYY, KAN-Ts cell membranes)
reported-conditions: membranes of KAN-Ts cells endogenously expressing Y2 receptors; [125I]PYY 80 pM; 1 h at rt; read-out: IC50 (μM), NPY Y2 binding
Please give a number only; it is taken to be in µM.

Recorded results for 2 molecules are shown here.
molecule: CCN(CC)C(=O)C(c1ccccc1)N1CCN(c2ccc(-c3noc(C4CCC4)n3)cc2F)CC1 (stereo not drawn)
measured-number: 0.85
--
molecule: CCN(CC)C(=O)C(c1ccccc1)N1CCN(c2ccc(-c3noc(CF)n3)cc2F)CC1 (stereo not drawn)
measured-number: 0.16

Please turn your attention to the following entry.
Req: Any idea what its IC50 is? The molecule is CCC(CC)c1nc(-c2ccc(N3CCN(C(C(=O)N(CC)CC)c4ccccc4)CC3)c(F)c2)no1 (stereo not drawn)
Resp: 0.48

----------
The following compounds are listed with their measured IC50 values.
test-system: NPY Y2 receptor (Homo sapiens)
Construct: endogenous in cells; host or cells: KAN-Ts cells (membrane preparation)
method-notes: Neuropeptide Y2 radioligand binding assay ([125I]PYY, KAN-Ts cell membranes)
reported-conditions: membranes of KAN-Ts cells endogenously expressing Y2 receptors; [125I]PYY 80 pM; 1 h at rt; read-out: IC50 (μM), NPY Y2 binding
Please give a number only; it is taken to be in µM.

Recorded results for 5 compounds are shown here.
compound: CCN(CC)C(=O)C(c1ccccc1)N1CCN(c2ccc(-c3nc(C(C)C)no3)cc2C#N)CC1 (stereo not drawn)
reported-endpoint: IC50
unit-symbol: µM
measured-number: 0.011
//
compound: CCN(CC)C(=O)C(c1ccccc1)N1CCN(c2ccc(-c3noc(C4CC4)n3)cc2F)CC1 (stereo not drawn)
reported-endpoint: IC50
unit-symbol: µM
measured-number: 0.27
//
compound: CCN(CC)C(=O)C(c1ccccc1)N1CCN(c2ccc(-c3ccc(OC)cc3)cc2F)CC1 (stereo not drawn)
reported-endpoint: IC50
unit-symbol: µM
measured-number: 1.9
//
compound: CCN(CC)C(=O)C(c1ccccc1)N1CCN(c2ccc(-c3ccccc3C)cc2F)CC1 (stereo not drawn)
reported-endpoint: IC50
unit-symbol: µM
measured-number: 1
//
compound: CCN(CC)C(=O)C(c1ccccc1)N1CCN(c2ccc(-c3noc(/C(N)=N/O)n3)cc2F)CC1 (stereo not drawn)
reported-endpoint: IC50
unit-symbol: µM
measured-number: 0.99

Req: Any idea what its IC50 is? The compound is CCN(CC)C(=O)C(c1ccccc1)N1CCN(c2ccc(-c3noc(SC)n3)cc2F)CC1 (stereo not drawn)
Resp: 0.51

Req: Any idea what its IC50 is? The compound is COC(=O)C(c1ccccc1)N1CCN(c2ccc(-c3nc(C)no3)cc2F)CC1 (stereo not drawn)
Resp: 3.1

----------
test-system: NPY Y2 receptor (Homo sapiens)
Construct: endogenous in cells; host or cells: KAN-Ts cells (membrane preparation)
Sequence (P49146 1-381): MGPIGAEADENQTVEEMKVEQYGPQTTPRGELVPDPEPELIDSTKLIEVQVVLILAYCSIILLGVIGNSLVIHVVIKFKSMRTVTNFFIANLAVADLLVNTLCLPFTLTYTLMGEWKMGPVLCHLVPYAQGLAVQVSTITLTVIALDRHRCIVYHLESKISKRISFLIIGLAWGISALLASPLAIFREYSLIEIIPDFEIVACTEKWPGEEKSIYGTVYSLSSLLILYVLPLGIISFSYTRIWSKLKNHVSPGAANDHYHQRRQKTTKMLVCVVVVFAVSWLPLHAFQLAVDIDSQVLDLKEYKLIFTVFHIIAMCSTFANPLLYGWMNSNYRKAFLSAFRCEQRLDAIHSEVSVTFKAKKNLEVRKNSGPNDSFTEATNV
method-notes: Neuropeptide Y2 radioligand binding assay ([125I]PYY, KAN-Ts cell membranes)
reported-conditions: membranes of KAN-Ts cells endogenously expressing Y2 receptors; [125I]PYY 80 pM; 1 h at rt; read-out: IC50 (μM), NPY Y2 binding
The following molecules are listed with their measured IC50 values.
Quick note: unit goes after the number.

molecule: CCN(CC)C(=O)C(c1ccccc1)N1CCN(c2ccc(-c3noc(C)n3)cc2F)CC1 (centres unmarked)
IC50: 0.18 µM
--
molecule: CCN(CC)C(=O)C(c1cc(F)ccc1Br)N1CCN(c2ccc(-c3nc(C)no3)cc2F)CC1 (centres unmarked)
IC50: 0.99 µM
--
molecule: CCN(CC)C(=O)C(c1ccccc1)N1CCN(c2ccc(-c3nnc(C)o3)cc2F)CC1 (centres unmarked)
IC50: 0.42 µM

Req: Any idea what its IC50 is? The molecule is CCN(CC)C(=O)C(c1ccccc1)N1CCN(c2ccc(-c3noc(C(N)=O)n3)cc2F)CC1 (centres unmarked)
Resp: 1.1 µM

Req: Any idea what its IC50 is? The molecule is CCN(CC)C(=O)C(c1ccccc1)N1CCN(c2ccc(-c3nnc(C(C)C)o3)cc2F)CC1 (centres unmarked)
Resp: 0.22 µM

----------
test-system: NPY Y2 receptor (Homo sapiens, UniProt P49146)
Construct: endogenous in cells; host or cells: KAN-Ts cells (membrane preparation)
Sequence (P49146 1-381): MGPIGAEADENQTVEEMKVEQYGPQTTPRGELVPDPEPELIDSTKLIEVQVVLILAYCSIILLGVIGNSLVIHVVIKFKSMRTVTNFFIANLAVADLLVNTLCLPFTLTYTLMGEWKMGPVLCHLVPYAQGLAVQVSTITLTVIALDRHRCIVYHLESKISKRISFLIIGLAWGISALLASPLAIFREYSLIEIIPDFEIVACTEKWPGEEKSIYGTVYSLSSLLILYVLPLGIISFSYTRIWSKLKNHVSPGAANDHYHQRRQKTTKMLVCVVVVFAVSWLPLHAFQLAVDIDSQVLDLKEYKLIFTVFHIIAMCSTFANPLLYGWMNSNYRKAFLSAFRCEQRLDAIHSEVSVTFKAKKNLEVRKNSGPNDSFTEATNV
method-notes: Neuropeptide Y2 radioligand binding assay ([125I]PYY, KAN-Ts cell membranes)
reported-conditions: membranes of KAN-Ts cells endogenously expressing Y2 receptors; [125I]PYY 80 pM; 1 h at rt; read-out: IC50 (μM), NPY Y2 binding
reported-endpoint: log10 of IC50 (log10 of the value in µM)
All values: base-10 log of IC50 in µM.

Recorded results for 4 molecules are shown here.
molecule: CCN(CC)C(=O)C(c1ccccc1)N1CCN(c2ccc(-c3noc(C(F)(F)F)n3)cc2F)CC1 (stereo not drawn) [Compound 118]
measured-number: -0.74
--
molecule: CCN(CC)C(=O)C(c1ccccc1)N1CCN(c2ccc(-c3noc(C(C)C)n3)cc2F)CC1 (stereo not drawn) [Compound 69]
measured-number: -0.89
--
molecule: CCc1cnc(-c2ccc(N3CCN(C(C(=O)N(CC)CC)c4ccccc4)CC3)c(F)c2)o1 (stereo not drawn) [Compound 133]
measured-number: -0.34
--
molecule: CCN(CC)C(=O)C(c1ccccc1)N1CCN(c2ccc(-c3cccn3C(=O)OC(C)(C)C)cc2F)CC1 (stereo not drawn) [Compound 187]
measured-number: 0.70

Req: Any idea what its log10 of IC50 is? The molecule is CCN(CC)C(=O)C(c1ccccc1)N1CCN(c2ccc(-c3cccnc3)cc2F)CC1 (stereo not drawn) [Compound 202]
Resp: 0.00

----------
test-system: NPY Y2 receptor (Homo sapiens)
Construct: endogenous in cells; host or cells: KAN-Ts cells (membrane preparation)
Sequence (P49146 1-381): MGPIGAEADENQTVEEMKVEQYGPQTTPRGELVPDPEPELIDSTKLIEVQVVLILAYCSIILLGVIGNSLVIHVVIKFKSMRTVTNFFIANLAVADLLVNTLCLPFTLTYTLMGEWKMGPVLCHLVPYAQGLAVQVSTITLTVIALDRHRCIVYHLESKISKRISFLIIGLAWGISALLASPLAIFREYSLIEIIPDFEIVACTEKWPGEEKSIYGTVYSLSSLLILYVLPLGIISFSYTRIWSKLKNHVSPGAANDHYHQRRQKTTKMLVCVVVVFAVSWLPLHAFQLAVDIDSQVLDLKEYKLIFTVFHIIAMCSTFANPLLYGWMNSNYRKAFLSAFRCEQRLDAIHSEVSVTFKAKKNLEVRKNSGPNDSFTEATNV
method-notes: Neuropeptide Y2 radioligand binding assay ([125I]PYY, KAN-Ts cell membranes)
reported-conditions: membranes of KAN-Ts cells endogenously expressing Y2 receptors; [125I]PYY 80 pM; 1 h at rt; read-out: IC50 (μM), NPY Y2 binding
Rule: IC50 below 0.5 µM gives 1. Equal to or above 0.5 µM gives -1.

molecule: CCOC(=O)c1nc(-c2ccc(N3CCN(C(C(=O)N(CC)CC)c4ccccc4)CC3)c(F)c2)no1 (centres unmarked)
test-system: NPY Y2 receptor (Homo sapiens)
qualitative-label: -1

Req: Decide: IC50 of CC[C@H](C)c1nc(-c2ccc(N3CCN(C(C(=O)N(CC)CC)c4ccccc4)CC3)c(F)c2)no1 (stereo in doubt) strictly below 0.5 µM?
Resp: 1

Req: Decide: IC50 of CCN(CC)C(=O)C(c1cccc(F)c1)N1CCN(c2ccc(-c3nc(C)no3)cc2F)CC1 (centres unmarked) strictly below 0.5 µM?
Resp: 1

Req: Decide: IC50 of CCN(CC)C(=O)C(c1ccc(OC)cc1)N1CCN(c2ccc(-c3nc(C)no3)cc2C#N)CC1 (centres unmarked) strictly below 0.5 µM?
Resp: 1

Req: Decide: IC50 of Cc1noc(-c2ccc(N3CCN(C(C(=O)N4CCC(F)(F)CC4)c4ccccc4)CC3)c(F)c2)n1 (centres unmarked) strictly below 0.5 µM?
Resp: 1

Req: Decide: IC50 of CCOC(=O)C(c1ccccc1)N1CCN(c2ccc(-c3nc(C)no3)cc2F)CC1 (centres unmarked) strictly below 0.5 µM?
Resp: 1
